- System: UACC-257
- EXPERIMENT_DESCRIPTION: NCI tumour cell line growth inhibition, 48 h
Active and inactive are the calls of the source. Rule as the data show it: active = GI50 up to about 1.1 µM and inactive = higher.
QUANTITY_NAME: GI50

Take a look at these entries with their results.
Cc1ccc(C)c(N2C(=O)C(=O)C(c3nc4ccccc4s3)/C(=N/N)C2=O)c1 (stereo not given) | > 27.9 µM (inactive)
CCOC(=O)c1cc([N+](=O)[O-])cc([N+](=O)[O-])c1Sc1[nH]cnc2ncnc1-2 | 6.21 µM (inactive)
CCCCN(C)/N=N/c1[nH]cnc1C(N)=O | > 73.5 µM (inactive)

Give the measured GI50 for CSc1nc(NC2CCCC2)c2cc[nH]c2n1 55.5 µM (inactive)

State its GI50 for this compound: C=C1C(=O)[C@@]23CC[C@H]4[C@@](C)(CCC[C@@]4(C)C(=O)OC)[C@@H]2CC[C@]1(O)C3 1.72 µM (inactive)

Please give measured GI50 of the following entry: Cc1c(OCCCOc2ccc3c(=O)cc(-c4ccccc4)oc3c2C)ccc2c(=O)cc(-c3ccccc3)oc12 > 100 µM (inactive)

Report GI50 for Cc1ccccc1NC(=O)CC(=O)NNC(Sc1ccccc1)c1cc(/N=N/c2ccc(Br)cc2)ccc1O (stereo not given) 3.65 µM (inactive)

Report GI50 for O=C(/C=C/c1ccc(OCC(=O)N2CCN(c3ccccc3)CC2)cc1)c1ccccc1 17.1 µM (inactive)

Look up and report measured GI50 for this entry: CC1CCCC(C(O)CC2CC(=O)NC(=O)C2)C1O (stereo not given) > 100 µM (inactive)

Return value of GI50 for input O=C(O)CC1NC(/C(=C/c2ccccc2)NC(=O)c2ccccc2)OC1=O (stereo not given) , no commentary. > 100 µM (inactive)

====

- Test system: SK-MEL-2
- EXPERIMENT_DESCRIPTION: NCI tumour cell line growth inhibition, 48 h
Calls of active or inactive are those of the source. Cut-off read from the data, not from the text of the source: active = GI50 up to about 1.1 µM and inactive = higher.
QUANTITY_NAME: GI50

# annotated cases, reported GI50 shown
CCOC(=O)C1(Br)S(=O)(=O)OCCOS1(=O)=O | > 100 µM (inactive)
COc1ccc(C2(O)C(S(=O)(=O)c3ccc(C)cc3)=Cc3ccc(OC)cc32)cc1 (stereo unspecified) | 43.2 µM (inactive)

Give reported GI50 value for CC1CCCN(CC(O)CN2CCCc3ccccc32)C1 (stereo unspecified) > 100 µM (inactive)

Dear colleague, please send me the reported GI50 for O=C(O)c1ccccc1C1c2ccccc2Oc2ccccc21 when you can. 23.4 µM (inactive)

Please report the measured GI50 for CCCCN(C)/N=N/c1[nH]cnc1C(N)=O 44.6 µM (inactive)

Look up and report measured GI50 for this entry: CCC1(CN(C)C)CC/C(=C\c2ccc(OC)cc2)C1=O (stereo unspecified) > 100 µM (inactive)

====

- Test system: SN12C
- EXPERIMENT_DESCRIPTION: NCI tumour cell line growth inhibition, 48 h
Active and inactive are the calls of the source. Cut-off read from the data, not from the text of the source: active = GI50 up to about 1.1 µM and inactive = higher.
As shown below, each of these compounds has a reported GI50 value.

Known results for compounds:
O=C(/C=C/c1ccccc1)CCC1C(=O)NC(=O)NC1=O | > 100 µM (inactive)
COc1cccc2c1C(=O)c1c(O)c3c(c(O)c1C2=O)C[C@@](O)(C(=O)CN1CCOCC1)C[C@@H]3OC1CC(N)C(O)C(C)O1 (stereo not given in full) | 2.4 µM (inactive)
CC(=O)OCCOCNC(=S)N/N=C/c1ccc([N+](=O)[O-])s1 | 36.4 µM (inactive)

Please list GI50 recorded for the compound COc1ccc(/N=N/c2ccc3oc(=O)c(C(=O)Nc4ccc(OC)cc4)cc3c2)cc1 14 µM (inactive)

Could you please provide reported GI50 for COc1ccccc1OCC(COC(=O)Nc1ccccc1)OC(=O)Nc1ccccc1 (stereo not given) ? Thanks! 28.5 µM (inactive)

// Input: O=c1[nH]c(=O)n(C2CC(O)C(CO)O2)c2nc3ccc4cc5ccccc5cc4c3nc12 (stereo not given) . Output its GI50 only. > 100 µM (inactive)

Name the recorded GI50 of the compound listed here: O=c1[nH]c(=O)n(C2C(CO)OC(CO)C2O)cc1F (stereo not given) > 100 µM (inactive)

Identify measured GI50 associated with c1ccc(/N=C2\SC(=NNc3ccccc3)S\C2=N/c2ccccc2)cc1 79.3 µM (inactive)

Determine from records and report GI50 for COC(=O)C(/C(=N/N)C(=O)Nc1ccc(C)c(C)c1)c1nc2ccc(Cl)cc2nc1O (stereo not given) > 100 µM (inactive)

Please report GI50 for the following compound: CN1C2CCC1CC(CC(=O)NC(c1ccc(F)cc1)c1ccc(F)cc1)C2 (stereo not given) > 100 µM (inactive)

Return reported GI50. Input compound: CCc1nc(N)nc(N)c1-c1ccc(NCCN)c([N+](=O)[O-])c1 12.1 µM (inactive)

Input COc1ccc(N2C(=O)/C(=C(\C)c3cc4ccccc4oc3=O)N=C2c2cc([N+](=O)[O-])ccc2Cl)cc1 , output reported GI50. 35 µM (inactive)

Indicate its recorded GI50; the compound in question is COC(=O)C1=C(C(=O)OC)C(OO)(c2ccccc2)OC1=O (stereo not given) 86.3 µM (inactive)

Please indicate GI50 recorded for O=C(O)c1ccccc1C1c2ccccc2Oc2ccccc21 46 µM (inactive)

====

# GI50 per entry
- Test system: OVCAR-3
- EXPERIMENT_DESCRIPTION: NCI tumour cell line growth inhibition, 48 h
The source made the active and inactive calls. Rule as the data show it: active = GI50 up to about 1.1 µM and inactive = higher.

Nc1c(Br)c(=O)[nH]c(=O)n1COCCO | > 100 µM (inactive)

Could you please provide reported GI50 for CC(=N/NC(=S)N1CCCCC1)/C(C)=N\NC(=S)N1CCCCC1 ? Thanks! 1.74 µM (inactive)

====

- Tested on: SNB-78
- EXPERIMENT_DESCRIPTION: NCI tumour cell line growth inhibition, 48 h
The source made the active and inactive calls. No stated cut-off is given here; in the data, active = GI50 up to about 1.1 µM and inactive = higher.
QUANTITY_NAME: GI50

In one line, give reported GI50 of the entry O=C1C=CC(=O)C12CCc1ccccc12 . > 100 µM (inactive)

Input CC1=Nc2c(O)nc(S)nc2NC(c2ccc(Cl)c(Cl)c2)C1 (stereo not drawn) , output reported GI50. 60.4 µM (inactive)

Provide GI50 value for the following compound: O=C1C=C(c2c(O)ccc3ccccc23)c2ccccc2C1=O 2.26 µM (inactive)

Specify measured GI50 for O=c1[nH]c(=O)n(C2OC(CO)C(O)C(O)C2O)cc1F (stereo not drawn) . > 100 µM (inactive)

Answer with the recorded GI50 for the compound listed here: C/C=C/C(=O)[C@@H](O)C(C)C > 100 µM (inactive)

Return GI50 for the following compound: CC(C)c1ccc(/C=C/c2cc(C(=O)NNC(=O)NC3CCCCC3)nc(S)n2)cc1 > 100 µM (inactive)

Retrieve GI50 measured for CC(=O)OC12COC1CC(O)C1(C)C(=O)C(O)C3=C(C)C(O)CC(O)(C(OC(=O)c4ccccc4)C21)C3(C)C (stereo not drawn) and print it. > 100 µM (inactive)

Give me measured GI50, please, for this compound: C/C(=N/NS(=O)(=O)c1c(C)cc(C)cc1C)c1cccc[n+]1[O-] > 100 µM (inactive)

State its GI50 for this compound: c1ccc(-n2cnnc2-c2nsc3ccccc23)cc1 > 100 µM (inactive)

Output GI50 of CC(C)C(=O)N1Cc2cc(Cl)cc(Cl)c2OC(=O)c2ccccc21 67.9 µM (inactive)

For the compound OCC1CC2CC1C1(C2)OCCO1 (stereo not drawn) , report GI50. > 100 µM (inactive)

Consider the compound CC(C)(C)CC(C)(C)c1cc2c(O)c(c1)Cc1cc(C(C)(C)CC(C)(C)C)cc(c1O)Cc1cc(C(C)(C)CC(C)(C)C)cc(c1O)Cc1cc(C(C)(C)CC(C)(C)C)cc(c1O)Cc1cc(C(C)(C)CC(C)(C)C)cc(c1O)C2 . State its measured GI50. > 100 µM (inactive)

Return reported GI50. Input compound: Oc1c(-c2ccccc2)nc2ccccn12 > 100 µM (inactive)

Please report the measured GI50 for C/C=C/C[C@@H](C)[C@@H](O)[C@H]1C(=O)N[C@@H](CC)C(=O)N(C)CC(=O)N(C)[C@@H](CC(C)C)C(=O)N[C@@H](C(C)C)C(=O)N(C)[C@@H](CC(C)C)C(=O)N[C@@H](C)C(=O)N[C@H](C)C(=O)N(C)[C@@H](CC(C)C)C(=O)N(C)[C@@H](CC(C)C)C(=O)N(C)[C@@H](C(C)C)C(=O)N1C 4.98 µM (inactive)

Tell me GI50 reported for Cc1cc(NS(=O)(=O)c2ccc(Nc3c4ccccc4nc4c(C(=O)Nc5ccc(S(=O)(=O)N=C(N)N)cc5)cccc34)cc2)no1 > 100 µM (inactive)

Consider the compound COC(=O)/C(=N/O)C(C(=O)C=C(C)C)C(=O)C(=O)Nc1nc2ccc([N+](=O)[O-])cc2s1 (stereo not drawn) and give its recorded GI50. 27.7 µM (inactive)

Quote GI50 reported for C/N=C(\S)N/N=C/C(C)=N/N/C(S)=N/C please. > 100 µM (inactive)

Recall and state the measured GI50 for C1CSC(=[N+]2CC[N+](=C3SCCS3)CC2)S1 . > 100 µM (inactive)
